test system: RBM10 RRM1-ZnF (GST-tagged construct); assay: RNAcompete 7-mer binding Z-score; higher = stronger binding preference;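 further: 20 pmol protein with 1.5 nmol RNA pool for 30 min at 4°C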
The full ranking holds about 16,000 sequences; the median of “Z-score” is about -0.37, and the highest 2% start at about 3.2. The full list was thinned out, with the highest values kept by preference.
Kindly return label 1 if reported RNAcompete 7-mer binding Z-score is no lower than 2; return label 0 if it is lower.

Has CUAUUGC a recorded RNAcompete 7-mer binding Z-score greater than or equal to 2?
label 0

Has CGCGGGA a recorded RNAcompete 7-mer binding Z-score greater than or equal to 2?
label 0

Has GAGGAAG a recorded RNAcompete 7-mer binding Z-score greater than or equal to 2?
label 1

Has GAGGGGU a recorded RNAcompete 7-mer binding Z-score greater than or equal to 2?
label 1

Has GAGGAAU a recorded RNAcompete 7-mer binding Z-score greater than or equal to 2?
label 0

----------
test system: RBM10 RRM1-ZnF (GST-tagged construct); assay: RNAcompete 7-mer binding Z-score; higher = stronger binding preference;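 further: 20 pmol protein with 1.5 nmol RNA pool for 30 min at 4°C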
The full ranking holds about 16,000 sequences; the median of “Z-score” is about -0.37, and the highest 2% start at about 3.2. This is one part of a sample in which the highest values are shown more often than they occur.
Recorded endpoint: RNAcompete 7-mer binding Z-score
Numbers only.

GAGUGGA    3.26
AGGGGCG    2.28
AUACUAG    -0.337
UUGGGUU    2.66
UGGGGUC    2.57

Please give RNAcompete 7-mer binding Z-score for each item listed below.
1. CAGGGUC
2. GGGGGUC
3. UAGUGGA
4. UUGGGUC

1.09
2.18
1.54
1.04

Please give RNAcompete 7-mer binding Z-score for each item listed below.
1. UGUGGGA
2. GCUGGGU
3. GGAGAAG

2.87
2.3
3.36

----------
Would you mind telling me the reported RNAcompete 7-mer binding Z-score of each entry?
system: RBM10 RRM1-ZnF (GST-tagged construct); assay: RNAcompete 7-mer binding Z-score; higher = stronger binding preference;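 further: 20 pmol protein with 1.5 nmol RNA pool for 30 min at 4°C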
The full ranking holds about 16,000 sequences; the median of “Z-score” is about -0.37, and the highest 2% start at about 3.2. The sample as a whole holds a higher share of the highest values than the screen did.

UAAGGAG    1.97
GAAUGGC    1.27
UGGGGUA    3.56
ACUCUAA    -0.685
CAGGGAA    2.96
GGUAGUG    2.47
AGUAGGA    2.8
GGUAGGC    1.92

Please give RNAcompete 7-mer binding Z-score for each item listed below.
1. AAAUGGG
2. GGUAAAG
3. GGUAGGU
4. AGGGAAA
5. AGAAGUA

1: 4.08; 2: 3.32; 3: 3.31; 4: 4.7; 5: 0.173

Please give RNAcompete 7-mer binding Z-score for each item listed below.
1. AAUCGAA
2. GGGGAAA
3. AGUAUUC
4. CUAGCGA
5. AAAUGGA
6. UGUAGAG

1. -0.181
2. 3.19
3. -0.493
4. -0.347
5. 3.63
6. 0.923

Please give RNAcompete 7-mer binding Z-score for each item listed below.
1. AAGGGAA
2. GUCUUUA
3. AGGUUCA
4. UUGGGUA
5. CGAACAU

4.37
-0.652
-0.0285
2.33
-0.503

Please give RNAcompete 7-mer binding Z-score for each item listed below.
1. UGGAGGG
2. AAAAGCG
3. GCGGUGU
4. CAGCCUG

1: 4.07; 2: 0.378; 3: 1.1; 4: -0.513

Please give RNAcompete 7-mer binding Z-score for each item listed below.
1. CUCAAUC
2. AAGGGAU
3. GUCGGCU
4. UUUGCGU
5. AGUAGGU

1: -0.769; 2: 3.65; 3: -0.0252; 4: -0.642; 5: 1.68

Please give RNAcompete 7-mer binding Z-score for each item listed below.
1. CUAAGAA
2. ACGGGUA
3. GAGUUAA
4. UUGGUUC
5. GUAGUUC

1: -0.331; 2: 2.05; 3: 0.29; 4: -0.344; 5: -0.243

Please give RNAcompete 7-mer binding Z-score for each item listed below.
1. UGUAAAG
2. UCGUACU
3. CACCUAU
4. ACUCUUU
5. GAGGGAU
6. CAGGGAU
7. ACCAGGA
8. CUAUGGG

[0.173, -0.539, -0.902, -0.844, 3.16, 2.36, 0.823, 1.13]

Please give RNAcompete 7-mer binding Z-score for each item listed below.
1. GCGGUGG
2. CGUAGAG
3. ACAGGCC
4. AAAUGGC
5. UGGGUGC
6. GCGUUUG
7. AUGGGCG
8. CAAUGUC

1: 2.85; 2: 0.381; 3: -0.0512; 4: 1.05; 5: 2.92; 6: 0.131; 7: 2.86; 8: -0.75
